Provenance of the data: patent US12187709B2

c-Cbl (Homo sapiens (Human), UniProt P22681): recorded IC50 for assorted molecules
Sequence (P22681 47-435): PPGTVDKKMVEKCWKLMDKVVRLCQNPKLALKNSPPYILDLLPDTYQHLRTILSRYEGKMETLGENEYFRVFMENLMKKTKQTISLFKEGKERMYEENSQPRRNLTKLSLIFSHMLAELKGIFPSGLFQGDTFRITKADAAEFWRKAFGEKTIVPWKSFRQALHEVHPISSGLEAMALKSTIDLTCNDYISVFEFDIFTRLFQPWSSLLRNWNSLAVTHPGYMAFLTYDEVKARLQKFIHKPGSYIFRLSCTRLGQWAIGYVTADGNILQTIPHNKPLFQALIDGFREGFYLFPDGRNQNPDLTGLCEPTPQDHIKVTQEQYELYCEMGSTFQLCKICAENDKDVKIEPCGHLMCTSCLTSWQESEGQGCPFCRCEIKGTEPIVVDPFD
observable: IC50 (nM)

Below are worked cases with known answers.
1. CO[C@H]1C[C@](c2cccc(N3Cc4c(cc(CNC5CC6(C5)CC6F)cc4C(F)(F)F)C3=O)c2)(c2nncn2C)C1 (stereo partly drawn)
68
2. CC(C)[C@H]1CN(C)CCN1Cc1cc2c(c(C(F)F)c1)CN(c1cccc(C3(c4nncn4C)CC4(COC4)C3)c1)C2=O.O=CO.O=CO [Compound 198, formate]
200
3. CO[C@H]1C[C@](c2cc(C3CC3)cc(N3Cc4c(cc(CNC5(C)CCC5)cc4C(F)(F)F)C3=O)c2)(c2nncn2C)C1
10
4. Cn1cnnc1C(c1cccc(N2Cc3c(cc(CNC4(C)CCC4)cc3C(F)(F)F)C2=O)c1)[C@H]1C[C@H](Cl)C1 (single isomer, unassigned) [Compound 355]
2000
5. Cn1cnnc1[C@@H](CC1COC1)c1cccc(N2Cc3c(cc(CNC4(C)CCC4)cc3C(F)(F)F)C2=O)c1
3600
6. CCOC1CC([C@H](c2cccc(N3Cc4c(cc(CNC5(C)CCC5)cc4C(F)(F)F)C3=O)c2)c2nncn2C)C1 (single isomer, unassigned) [Compound 265]
3400
7. CO[C@H]1C[C@](c2cccc(N3Cc4c(cc(CN5CCCCC5)cc4C(F)(F)F)C3=O)c2)(c2nncn2C)C1
720
8. CC1=C[C@@](c2cc(NC3CCC3)nc(N3Cc4c(cc(CN5CCN(C)C[C@@H]5C(C)C)cc4C(F)(F)F)C3=O)c2)(c2nncn2C)C1 (single isomer, unassigned)
16.8

a = CO[C@H]1C[C@@](c2cc(NC3CC3)cc(N3Cc4c(cc(CNC5(C)CCC5)cc4C(F)(F)F)C3=O)c2)(c2nncn2C)C1
b = CO[C@H]1C[C@](c2cccc(N3Cc4c(cc(CNCCOC(F)F)cc4C(F)(F)F)C3=O)c2)(c2nncn2C)C1
c = Cn1cnnc1[C@]1(c2cccc(N3Cc4c(Cl)cc(CNC5(C)CCC5)cc4C3=O)c2)C[C@@H](Cl)C1
d = CO[C@H]1C[C@@](c2cc(NCCC#N)cc(N3Cc4c(cc(CNC5(C)CCC5)cc4C(F)(F)F)C3=O)c2)(c2nncn2C)C1
Order the records by IC50, with each subsequent value no larger than the one before. # output: labels, in the requested order
d, b, a, c
(d: 100 nM, b: 36 nM, a: 17 nM, c: 6.6 nM)
